# system_name: T1, Extracellular domain (ECD) of the canine IL-4 receptor alpha-V5 epitope-AviTag-His Tag (canine)
# T1 construct: monomeric form isolated by size exclusion; also called canine IL-4RA-V5-Avi-His; canine IL-4RA
# T1 chain: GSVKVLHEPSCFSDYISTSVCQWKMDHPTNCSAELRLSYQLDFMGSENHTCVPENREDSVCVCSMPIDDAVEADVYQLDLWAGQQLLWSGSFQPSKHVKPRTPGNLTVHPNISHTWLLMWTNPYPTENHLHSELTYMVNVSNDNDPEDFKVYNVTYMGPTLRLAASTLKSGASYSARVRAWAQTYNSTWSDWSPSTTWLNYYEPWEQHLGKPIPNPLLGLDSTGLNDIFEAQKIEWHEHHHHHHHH
# protocol_summary: SPR, Fab-SASA captured on BSA;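 further: biacore T200 SPR, Fab-SASA variants from E. coli conditioned medium captured on BSA-coated CM5 chip, canine IL-4RA injected 120 s then 420 s dissociation, 1:1 model fit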
measurement_kind: Ratio WT-kd/clone-kd
Format: numeric value only, no unit, no commentary.

binder | Ratio WT-kd/clone-kd
TB640_005 Fab-SASA VL-L101N (Fab, V domains shown, not shown: SASA tag then His-tag) VH: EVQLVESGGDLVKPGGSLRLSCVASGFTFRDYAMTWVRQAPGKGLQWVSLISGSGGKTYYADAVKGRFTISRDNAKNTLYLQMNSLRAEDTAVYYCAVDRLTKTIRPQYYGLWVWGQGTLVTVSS VL: DIVMTQTPLSLSVSPGETASISCRSSQSLLYSIGYNYLDWYLQKPGQSPQGLIYLGSKRASGVPDRFSGSGSGTDFTLRISRVEANDTGVYYCMQGLQSPNTFGQGTKLEIKR | 0.3
TB640_005 Fab-SASA VL-S57H (Fab, V domains shown, not shown: SASA tag then His-tag) VH: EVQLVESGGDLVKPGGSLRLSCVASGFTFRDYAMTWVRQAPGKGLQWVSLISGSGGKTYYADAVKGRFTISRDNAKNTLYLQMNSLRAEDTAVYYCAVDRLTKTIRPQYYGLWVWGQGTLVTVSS VL: DIVMTQTPLSLSVSPGETASISCRSSQSLLYSIGYNYLDWYLQKPGQSPQGLIYLGHKRASGVPDRFSGSGSGTDFTLRISRVEANDTGVYYCMQGLQSPLTFGQGTKLEIKR | 1.41

Here is the next item to consider.
Q. Return reported Ratio WT-kd/clone-kd. Input binder: TB640_005 Fab-SASA VH-Y110L (Fab, V domains shown, not shown: SASA tag then His-tag) VH: EVQLVESGGDLVKPGGSLRLSCVASGFTFRDYAMTWVRQAPGKGLQWVSLISGSGGKTYYADAVKGRFTISRDNAKNTLYLQMNSLRAEDTAVYYCAVDRLTKTIRPQYLGLWVWGQGTLVTVSS VL: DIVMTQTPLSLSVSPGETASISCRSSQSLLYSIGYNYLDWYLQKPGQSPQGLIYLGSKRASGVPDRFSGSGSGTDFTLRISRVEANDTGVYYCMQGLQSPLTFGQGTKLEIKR
A. 0.71
